Target: BRD4(1) (Homo sapiens)
observationType: IC50 (µM)
Give the value in µM but do not write µM after it.

smiles | unitTag | IC50
Cc1nnc2scc(-c3ccccc3)n12 | µM | 54

Q: Tell me its IC50 on BRD4(1) (Homo sapiens): "COCc1nnc2scc(-c3ccccc3)n12"
A: 85
